# Target: Human immunodeficiency virus type 1 reverse transcriptase (Human immunodeficiency virus 1, UniProt Q72547)
Reported metric: IC50 (µM)

CSc1nc2ncnc(NCC(P(=O)(O)O)P(=O)(O)O)c2cc1-c1ccsc1	8.3
CC(C)Oc1ccc(-c2cnc3ncnc(NC(P(=O)(O)O)P(=O)(O)O)c3c2)cc1	10
O=P(O)(O)C(CNc1ncnc2ncc(-c3ccsc3)cc12)P(=O)(O)O	9
